- test.details: Luminescence activity assay of purified Gaussia luciferase mutants on fluoro-coelenterazine
- Format: biochemical
- Parameters: key: ratio of mutant luminescence intensity to wild-type Gaussia luciferase
- condition.description: Substrate f-CTZ (Table 16)
Label t for high-side Activity of mutant relative to wild-type Gaussia luciferase without the signal peptide (at or above 0.09) and f for low-side Activity of mutant relative to wild-type Gaussia luciferase without the signal peptide (below it).

molecule	label.value
Q152K Q163T S170N G174N K178S A182Y G183A: Gaussia luciferase mutant (protein, SIGNAL (1)..(17), Gaussia luciferase mutant) MGVKVLFALICIAVAEAKPTENNEDFNIVAVASNFATTDLDADRGKLPGKKLPLEVLKEMEANARKAGCTRGCLICLSHIKCTPKMKKFIPGRCHTYEGDKESAQGGIGEAIVDIPEIPGFKDLEPMEQFIAQVDLCVDCTTGCLKGLANVKCSDLLKKWLPTRCATFANKIQNQVDSIKGYAGD	t

Is reported Activity of mutant relative to wild-type Gaussia luciferase without the signal peptide greater than or equal to 0.09 here: Q152H S170D G174S K178T A182L: Gaussia luciferase mutant (protein, SIGNAL (1)..(17), Gaussia luciferase mutant) MGVKVLFALICIAVAEAKPTENNEDFNIVAVASNFATTDLDADRGKLPGKKLPLEVLKEMEANARKAGCTRGCLICLSHIKCTPKMKKFIPGRCHTYEGDKESAQGGIGEAIVDIPEIPGFKDLEPMEQFIAQVDLCVDCTTGCLKGLANVHCSDLLKKWLPQRCATFADKIQSQVDTIKGLGGD
t
